# System Under Test: Histone deacetylase (Rattus norvegicus) (UniProt Q6P6W3+Q99P99+Q99P96+Q4QQW4+Q99P97+Q5RJZ2+B1WBY8);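 also: HDAC enzyme from rat liver, compound preincubated 15 min, then Boc-Lys(Ac)-AMC substrate added, fluorescence read after 30 min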
# Condition Info: at 10 µM
# Description: Inhibition of rat liver HDAC at 10 uM pre-incubated for 15 mins before Boc-Lys(Ac)-AMC substrate addition and measured after 30 mins by fluorometry
Measurement Name: inhibition (%)

> print(dat)
                            smiles.structure  experimental.result
 1           O=C(CCCOc1ccc2c(c1)CCC(=O)N2)NO                   65
 2  O=C(CCCCCCCC(=O)Nc1ccc2c(c1)CCC(=O)N2)NO                   97
 3     CC1(C)CC(=O)Nc2ccc(OCCCCCC(=O)NO)cc21                   88
 4        O=C(CCCCCOc1ccc2ccc(=O)[nH]c2c1)NO                   93
 5  CN1C(=O)CC(C)(C)c2cc(C(=O)NCCCCCCC(=O)NO)ccc21                   99
 6  CC1(C)CC(=O)Nc2ccc(S(=O)(=O)NCCCCCCC(=O)NO)cc21                   94
 7  CN1C(=O)CCc2cc(C(=O)NCCCCCCC(=O)NO)ccc21                   99
 8     COc1ccc2cc(C(=O)NCCCCCCC(=O)NO)ccc2n1                  100
 9  O=C(CCCCCCCNC(=O)c1ccc2c(c1)CCC(=O)N2)NO                   98
10         O=C(CCCCCOc1ccc2c(c1)CCC(=O)N2)NO                   91
11        O=C(CCCCCOc1cccc2ccc(=O)[nH]c12)NO                   86
12  Cn1c(=O)ccc2cc(C(=O)NCCCCCCC(=O)NO)ccc21                   99
13    O=C(CCCCCC(=O)Nc1ccc2c(c1)CCC(=O)N2)NO                   95
14  CC1(C)CC(=O)Nc2ccc(C(=O)NC[C@H]3CC[C@@H](CCC(=O)NO)CC3)cc21                   97
15           O=C(CCCCCOc1cccc2c1CCC(=O)N2)NO                   86
16  O=C(CCCCCCS(=O)(=O)Nc1ccc2c(c1)CCC(=O)N2)NO                   91
17  CN1C(=O)CC(C)(C)c2cc(NC(=O)CCCCCCC(=O)NO)ccc21                   98
18           O=C(CCCCCOc1cccc2c1NC(=O)CC2)NO                   80
19  CC1(C)CC(=O)Nc2ccc(C(=O)NCCCCCCC(=O)NO)cc21                   98
20  O=C(CCCCCCC(=O)Nc1ccc2[nH]c(=O)ccc2c1)NO                   99
21  O=C(CCCCCCNS(=O)(=O)c1ccc2[nH]c(=O)ccc2c1)NO                   94
22         O=C(CCCCCOc1ccc2c(c1)NC(=O)CC2)NO                   91
23  CC1(C)CC(=O)Nc2cc(C(=O)NCc3cccc(/C=C/C(=O)NO)c3)ccc21                   96
24  CC1(C)CC(=O)Nc2c(F)cc(C(=O)NCCCCCCC(=O)NO)cc21                   99
25   O=C(CCCCCCC(=O)Nc1ccc2c(c1)CCC(=O)N2)NO                   98
26  CC1(C)CC(=O)Nc2ccc(C(=O)NC[C@H]3CC[C@@H](/C=C/C(=O)NO)CC3)cc21                   92
27        O=C(CCCCCOc1ccc2[nH]c(=O)ccc2c1)NO                   94
28           O=C(CCCCCOc1ccc2oc(=O)ccc2c1)NO                   91
29  COC1=Nc2ccc(NC(=O)CCCCCCC(=O)NO)cc2C(C)(C)C1                   99
30  CC1(C)CC(=O)Nc2ccc(C(=O)NCc3ccc(/C=C/C(=O)NO)cc3)cc21                   98
31  O=C(CCCCCCNS(=O)(=O)c1ccc2c(c1)CCC(=O)N2)NO                   94
32  CC1(C)CC(=O)Nc2cc(C(=O)NCCCCCCC(=O)NO)ccc21                   99
33   O=C(CCCCCCNC(=O)c1ccc2c(c1)CCC(=O)N2)NO                   98
